pIC50: −log10 of the molar value.
# pIC50 measurements, system: UniProt:O00763
# Sequence (O00763 whole entry): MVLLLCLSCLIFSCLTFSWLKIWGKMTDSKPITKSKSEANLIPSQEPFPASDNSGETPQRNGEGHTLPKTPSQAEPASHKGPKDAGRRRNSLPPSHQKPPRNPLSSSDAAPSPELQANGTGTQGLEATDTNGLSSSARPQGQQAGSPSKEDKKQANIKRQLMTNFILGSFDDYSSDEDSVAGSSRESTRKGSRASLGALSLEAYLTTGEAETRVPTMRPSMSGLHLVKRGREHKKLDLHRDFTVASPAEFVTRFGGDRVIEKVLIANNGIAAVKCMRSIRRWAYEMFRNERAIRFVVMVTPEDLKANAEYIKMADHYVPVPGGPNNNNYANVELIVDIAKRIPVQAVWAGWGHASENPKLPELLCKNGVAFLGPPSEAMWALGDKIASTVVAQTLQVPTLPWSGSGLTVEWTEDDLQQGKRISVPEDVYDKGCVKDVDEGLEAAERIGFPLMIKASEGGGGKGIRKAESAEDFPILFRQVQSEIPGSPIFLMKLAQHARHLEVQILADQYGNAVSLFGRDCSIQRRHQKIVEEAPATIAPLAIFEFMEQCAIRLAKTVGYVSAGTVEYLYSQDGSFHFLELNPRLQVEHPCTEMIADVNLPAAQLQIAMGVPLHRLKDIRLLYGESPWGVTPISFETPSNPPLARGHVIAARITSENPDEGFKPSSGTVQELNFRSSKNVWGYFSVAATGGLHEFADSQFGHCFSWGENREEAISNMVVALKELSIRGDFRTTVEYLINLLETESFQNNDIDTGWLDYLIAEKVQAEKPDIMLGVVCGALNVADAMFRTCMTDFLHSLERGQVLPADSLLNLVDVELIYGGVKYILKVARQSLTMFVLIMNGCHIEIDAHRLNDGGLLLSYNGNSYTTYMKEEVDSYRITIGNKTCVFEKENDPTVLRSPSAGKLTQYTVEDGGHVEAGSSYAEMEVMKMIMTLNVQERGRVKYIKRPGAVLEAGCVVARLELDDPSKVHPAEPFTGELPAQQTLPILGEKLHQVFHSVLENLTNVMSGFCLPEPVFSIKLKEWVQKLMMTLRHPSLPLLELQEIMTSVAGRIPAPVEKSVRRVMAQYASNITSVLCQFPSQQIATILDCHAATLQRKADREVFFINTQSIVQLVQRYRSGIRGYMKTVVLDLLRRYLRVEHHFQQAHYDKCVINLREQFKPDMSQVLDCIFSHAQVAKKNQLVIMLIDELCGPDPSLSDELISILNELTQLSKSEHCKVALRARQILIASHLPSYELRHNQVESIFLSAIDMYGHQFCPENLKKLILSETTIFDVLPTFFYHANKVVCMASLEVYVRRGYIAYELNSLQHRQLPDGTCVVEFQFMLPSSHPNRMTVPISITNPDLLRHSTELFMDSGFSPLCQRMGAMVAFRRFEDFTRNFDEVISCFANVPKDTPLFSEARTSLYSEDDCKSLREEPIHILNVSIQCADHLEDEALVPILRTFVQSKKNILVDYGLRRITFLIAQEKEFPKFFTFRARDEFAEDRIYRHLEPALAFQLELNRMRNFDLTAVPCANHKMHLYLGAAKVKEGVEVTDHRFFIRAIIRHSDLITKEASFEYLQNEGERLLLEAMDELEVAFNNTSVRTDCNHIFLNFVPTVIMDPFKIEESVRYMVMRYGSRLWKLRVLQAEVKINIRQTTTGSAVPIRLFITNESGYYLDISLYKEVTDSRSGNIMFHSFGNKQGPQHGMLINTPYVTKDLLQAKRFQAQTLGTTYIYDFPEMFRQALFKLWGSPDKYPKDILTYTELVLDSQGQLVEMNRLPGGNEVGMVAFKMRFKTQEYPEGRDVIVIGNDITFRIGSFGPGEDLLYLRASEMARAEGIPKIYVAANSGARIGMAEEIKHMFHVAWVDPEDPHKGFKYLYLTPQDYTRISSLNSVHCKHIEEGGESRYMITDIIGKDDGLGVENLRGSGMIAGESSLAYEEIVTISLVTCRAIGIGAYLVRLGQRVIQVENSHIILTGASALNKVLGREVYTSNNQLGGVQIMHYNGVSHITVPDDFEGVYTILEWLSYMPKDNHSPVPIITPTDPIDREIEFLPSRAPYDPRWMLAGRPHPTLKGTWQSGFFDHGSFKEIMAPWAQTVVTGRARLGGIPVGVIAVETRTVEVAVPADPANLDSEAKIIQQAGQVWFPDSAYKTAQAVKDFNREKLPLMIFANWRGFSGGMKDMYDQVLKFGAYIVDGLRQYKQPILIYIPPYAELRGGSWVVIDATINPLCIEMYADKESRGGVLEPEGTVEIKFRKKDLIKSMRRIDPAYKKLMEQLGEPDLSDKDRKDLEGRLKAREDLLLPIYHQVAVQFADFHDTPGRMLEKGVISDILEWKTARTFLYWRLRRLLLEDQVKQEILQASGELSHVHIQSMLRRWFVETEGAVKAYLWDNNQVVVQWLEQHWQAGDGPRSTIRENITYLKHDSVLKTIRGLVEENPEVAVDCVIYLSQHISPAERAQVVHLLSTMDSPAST

Task: Field request: pIC50 | item: CC(C#Cc1cnc(Oc2ccc(Oc3ccccc3)cc2)s1)Nc1nc2ccccc2s1 (stereo not drawn)
Result: < 4.52

Task: Okay, and CC(C#Cc1cnc(Oc2ccc(OC(C)C)cc2)s1)NC(=O)C(=O)O (stereo not drawn) ?
Result: < 4.52

Task: Okay, and CC(=O)NC(C#Cc1cnc(Oc2ccc(OC(C)C)cc2)s1)c1ccccc1 (stereo not drawn) ?
Result: < 4.52
